test: in vivo; conditions: Wistar, rat, po, 75 mg/kg
Description: Tmax in fasted Wistar rat at 75 mg/kg, po measured for 24 hrs by LCMS/MS analysis
value-kind: Tmax at 24 h

Per the records, this compound ( C=C(C)[C@@H]1CCC(C)=C[C@H]1c1c(O)cc(CCCCC)cc1O ) has Tmax at 24 h equal to 8 h

----------
assay: Thermodynamic equilibrium solubility SIF at 1 to 1200 ug incubated for 4 hrs by absorbance based assay; format: physicochemical; details: dose 1-1200 µg, read-out: Therm_solubility
value-kind: solubility thermodynamic at 4 h (µg/mL)
Give a bare numeral; the unit µg/mL is implied.

Per the records, this compound ( O=C(/C=C/C=C/c1ccc2c(c1)OCO2)N1CCCCC1 ) has solubility thermodynamic at 4 h equal to 60

Per the records, this compound ( C=C(C)[C@@H]1CCC(C)=C[C@H]1c1c(OC(=O)CN2CCOCC2)cc(CCCCC)cc1OC(=O)CN1CCOCC1 ) has solubility thermodynamic at 4 h equal to 120

Per the records, this compound ( C=C(C)[C@@H]1CCC(C)=C[C@H]1c1c(O)cc(CCCCC)cc1OC(=O)CN1CCOCC1 ) has solubility thermodynamic at 4 h equal to 80

----------
experiment: Cmax in fasted Swiss mouse at 75 mg/kg, po measured for 24 hrs by LCMS/MS analysis; type: ADME, organism-based; set-up: dose 75 mg/kg, time 24 hrs, route po; settings: in vivo
value-kind: Cmax (ng/mL)
Give a bare numeral; the unit ng/mL is implied.

Per the records, this compound ( C=C(C)[C@@H]1CCC(C)=C[C@H]1c1c(O)cc(CCCCC)cc1O ) has Cmax equal to 669
